Every entry's value here was drawn from patent US20220363763A1.

- target: T1, human PD-L1 expressed on mammalian cells (human, UniProt Q9NZQ7 19-290)
- T1 construct: whole, on cells; also called PDL1-CHOK1 cells; PDL1-Raji cells
- T1 sequence (Q9NZQ7 19-290): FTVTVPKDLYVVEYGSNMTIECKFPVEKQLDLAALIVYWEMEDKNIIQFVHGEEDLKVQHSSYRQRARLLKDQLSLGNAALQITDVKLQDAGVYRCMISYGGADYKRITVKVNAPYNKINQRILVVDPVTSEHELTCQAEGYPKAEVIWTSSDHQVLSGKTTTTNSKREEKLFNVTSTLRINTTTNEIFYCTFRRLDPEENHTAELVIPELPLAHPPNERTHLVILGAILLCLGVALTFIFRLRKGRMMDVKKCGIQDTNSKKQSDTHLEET
- measurementProtocol: FACS receptor blocking on PDL1-CHOK1 cells, competitor Bio-PD1 (30 µg/ml)
measuredQuantity: TOP
// no unit, no text: just the number

Please review the following examples before continuing.
Annotate the binder Hu1210-14 (antibody, V domains shown, Hu1210 VH.3a x Vk.1; human gamma 1 / kappa constant domains) VH: EVQLLESGGGLVQPGGSLRLSCAASGFTFSSYDMSWVRQAPGKSLEWVATISDGGGYIYYSDSVKGRFTISRDNSKNTLYLQMNSLRAEDTAVYICAREFGKRYALDYWGQGTTVTVSS VL: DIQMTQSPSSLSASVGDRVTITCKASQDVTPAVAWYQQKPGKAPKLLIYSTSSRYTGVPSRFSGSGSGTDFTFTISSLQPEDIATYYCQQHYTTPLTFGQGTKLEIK with its measured TOP. 79.6

Annotate the binder Hu1210-16 (antibody, V domains shown, Hu1210 VH.4a x Vk.1; human gamma 1 / kappa constant domains) VH: EVQLVESGGGLVQPGGSLRLSCAASGFTFSSYDMSWVRQAPGKGLEWVATISDGGGYIYYSDSVKGRFTISRDNAKNSLYLQMNSLRDEDTAVYYCAREFGKRYALDYWGQGTTVTVSS VL: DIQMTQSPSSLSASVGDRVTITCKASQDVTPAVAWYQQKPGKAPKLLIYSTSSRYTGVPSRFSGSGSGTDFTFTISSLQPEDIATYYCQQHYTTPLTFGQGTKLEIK with its measured TOP. 88

Here's the next entry for you.
Annotate the binder Hu1210-8 (antibody, V domains shown, Hu1210 VH.1a x Vk.1a; human gamma 1 / kappa constant domains) VH: EVQLVESGGGLVKPGGSLRLSCAASGFTFSSYDMSWVRQAPGKGLEWVATISDGGGYIYYSDSVKGRFTISRDNAKNSLYLQMNSLRAEDTAVYYCAREFGKRYALDYWGQGTTVTVSS VL: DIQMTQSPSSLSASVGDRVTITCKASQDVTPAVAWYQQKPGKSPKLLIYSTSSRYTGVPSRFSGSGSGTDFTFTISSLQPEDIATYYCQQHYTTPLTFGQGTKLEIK with its measured TOP. 86.3
